Provide the recorded CC50 for the entries that follow.
method.description: Cytotoxicity against mouse BV-2 cells by MTT assay
Type: toxicity, cell-based
condition.details: read-out: TC50 (the source's name)

Ask: Consider the compound shown here: COc1cc(/C=C/C(=O)N2CCCN(S(=O)(=O)c3cccc4cnccc34)CC2)ccc1OCCCCO[N+](=O)[O-] What is its recorded CC50?
Result: > 100 µM

Ask: Quick one: CC50 of CC1(C)C=Cc2cc(C(=O)N3CCCN(S(=O)(=O)c4cccc5cnccc45)CC3)ccc2O1 ?
Result: > 100 µM

Ask: Given the entry COc1cc(/C=C/C(=O)N2CCCN(S(=O)(=O)c3cccc4cnccc34)CC2)cc(OC)c1O , report its measured CC50.
Result: > 100 µM

Ask: Look up CC50 for this compound: COc1cc(/C=C/C(=O)OCCCCCC2CCSS2)ccc1OC(C)=O (stereo not given)
Result: > 100 µM

Ask: Item O=S(=O)(c1cccc2cnccc12)N1CCN(C(c2ccccc2)c2ccccc2)CC1 has what recorded CC50?
Result: > 20 µM

Ask: Which value of CC50 has been reported for COc1cc(/C=C/C(=O)N2CCCN(S(=O)(=O)c3cccc4cnccc34)CC2)ccc1OCCCO[N+](=O)[O-] in the records?
Result: > 100 µM

Ask: Entry under review: O=C(OCCCCCC1CCSS1)N1CCCN(S(=O)(=O)c2cccc3cnccc23)CC1 (stereo not given) . Reported CC50?
Result: > 100 µM

Ask: Could you share which CC50 value was measured for COc1cc(/C=C/C(=O)N2CCCN(S(=O)(=O)c3cccc4cnccc34)CC2)ccc1OC(C)=O ?
Result: > 100 µM

Ask: Query (compound): O=S(=O)(c1cccc2cnccc12)N1CCN(C(c2ccc(F)cc2)c2ccc(F)cc2)CC1 ; field requested: CC50
Result: > 20 µM

Ask: Recorded CC50 of CC1(C)C=Cc2cc(/C=C/C(=O)N3CCCN(S(=O)(=O)c4cccc5cnccc45)CC3)ccc2O1 , please.
Result: 64.4 µM

Ask: Find the recorded CC50 belonging to O=C(CCCCC1CCSS1)N1CCN(C(c2ccc(F)cc2)c2ccc(F)cc2)CC1 (stereo not given) and report it.
Result: > 100 µM

Ask: What value of CC50 has been reported for the following compound? COc1cc(/C=C/C(=O)N2CCCN(S(=O)(=O)c3cccc4cnccc34)CC2)ccc1O
Result: > 100 µM

Ask: Param item = COc1cc(/C=C/C(=O)N2CCCN(S(=O)(=O)c3cccc4cnccc34)CC2)ccc1OCCCCCO[N+](=O)[O-] ; retrieve measured CC50.
Result: > 100 µM

Ask: # get_value(readout='CC50', item= CC1(C)C=Cc2cc(/C=C/C(=O)N3CCN(S(=O)(=O)c4cccc5cnccc45)CC3)ccc2O1 )
Result: > 100 µM

Ask: Return reported CC50; argument: CC(=O)Oc1ccc(/C=C/C(=O)N2CCCN(S(=O)(=O)c3cccc4cnccc34)CC2)cc1OC(C)=O
Result: 44.2 µM

Ask: For the compound shown here, CC(=O)Oc1ccc(/C=C/C(=O)N2CCCN(S(=O)(=O)c3cccc4cnccc34)CC2)cc1 , give the reported CC50.
Result: > 100 µM

Ask: What measured CC50 goes with COc1cc(/C=C/C(=O)N2CCCN(S(=O)(=O)c3cccc4cnccc34)CC2)cc(OC)c1OC(C)=O ?
Result: > 100 µM

Ask: Can you look up the measured CC50 of CC(=O)Oc1ccccc1C(=O)OCCCCCC1CCSS1 (stereo not given) for me?
Result: 9.19 µM

Ask: What does the record list as CC50 for COc1cc(/C=C/C(=O)N2CCCN(S(=O)(=O)c3cccc4cnccc34)CC2)ccc1OCCCCCCO[N+](=O)[O-] ?
Result: > 100 µM

Ask: For the compound shown here, O=S(=O)(c1cccc2cnccc12)N1CCCN(C(c2ccccc2)c2ccccc2)CC1 , give the reported CC50.
Result: > 100 µM
